- study system: Androgen receptor (Homo sapiens) (UniProt P10275)
- Sequence (P10275 whole entry, looked up): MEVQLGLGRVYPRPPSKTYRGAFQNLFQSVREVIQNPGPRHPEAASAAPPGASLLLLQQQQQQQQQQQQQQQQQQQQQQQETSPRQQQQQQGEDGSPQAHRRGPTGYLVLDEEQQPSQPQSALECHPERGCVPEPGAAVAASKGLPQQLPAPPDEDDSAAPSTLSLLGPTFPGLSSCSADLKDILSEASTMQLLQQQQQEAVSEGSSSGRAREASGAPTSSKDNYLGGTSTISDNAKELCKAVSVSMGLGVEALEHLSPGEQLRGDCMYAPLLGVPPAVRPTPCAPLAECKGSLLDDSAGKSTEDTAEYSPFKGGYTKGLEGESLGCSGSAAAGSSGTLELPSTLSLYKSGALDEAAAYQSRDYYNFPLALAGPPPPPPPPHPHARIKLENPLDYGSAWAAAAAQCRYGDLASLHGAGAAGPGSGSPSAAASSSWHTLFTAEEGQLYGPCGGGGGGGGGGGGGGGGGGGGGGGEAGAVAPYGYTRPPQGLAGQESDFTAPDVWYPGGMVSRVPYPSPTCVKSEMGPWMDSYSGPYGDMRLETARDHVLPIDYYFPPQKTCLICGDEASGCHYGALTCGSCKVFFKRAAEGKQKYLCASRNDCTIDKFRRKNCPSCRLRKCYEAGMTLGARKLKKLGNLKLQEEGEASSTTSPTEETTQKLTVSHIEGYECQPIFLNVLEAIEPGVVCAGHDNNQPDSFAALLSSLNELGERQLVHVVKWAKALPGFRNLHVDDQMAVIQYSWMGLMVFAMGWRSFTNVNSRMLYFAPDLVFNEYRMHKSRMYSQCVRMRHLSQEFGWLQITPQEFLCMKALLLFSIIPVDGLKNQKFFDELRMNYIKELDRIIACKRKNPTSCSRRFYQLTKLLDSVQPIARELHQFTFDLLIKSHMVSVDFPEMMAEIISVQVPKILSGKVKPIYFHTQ
- experiment notes: qHTS assay to identify small molecule agonists of the androgen receptor (AR) signaling pathway using the MDA cell line (AID 743040; further: nearly all actives have a fitted effect of over 20% in size)
- run parameters: MDA-kb2 AR-luc cells, MMTV luciferase, 16 h; series mostly up to 70.3 µM
The source made the active and inactive calls. The call rests on the fitted dose curve; in most records, active means well fitted activation curve with a large enough effect in the repeat runs; inconclusive means weak or mixed curves; inactive means flat fitted curve, though single readings scatter.

- compound: "Oc1ccc(Cl)c2c1CCC2"
  outcome: "inactive"
- compound: "CO/N=C(\\C(=O)N[C@@H]1C(=O)N2C(C(=O)O)=C(CSc3cnns3)CS[C@H]12)c1csc(N)n1"
  outcome: "inactive"
- compound: "NC(=O)c1cc[n+](CC2=C(C(=O)O)N3C(=O)[C@@H](NC(=O)C(c4ccccc4)S(=O)(=O)[O-])[C@H]3SC2)cc1 (stereo partly drawn)"
  outcome: "inactive"
- compound: "NCCCC[C@H](NC(=O)[C@@H]1CCCN1C(=O)[C@@H]1CSSC[C@H](N)C(=O)N[C@@H](Cc2ccc(O)cc2)C(=O)N[C@@H](Cc2ccccc2)C(=O)N[C@@H](CCC(N)=O)C(=O)N[C@@H](CC(N)=O)C(=O)N1)C(=O)NCC(N)=O"
  outcome: "inactive"
- compound: "CN(C[C@@H](CC[N+]12CCC(C3CCCCC3)(CC1)CC2)c1ccc(Cl)c(Cl)c1)C(=O)c1cc(C(F)(F)F)cc(C(F)(F)F)c1"
  outcome: "inactive"
- compound: "CCN1CCCC1CNC(=O)c1cc(S(=O)(=O)CC)ccc1OC (stereo not drawn)"
  outcome: "inactive"
- compound: "O=C1c2ccccc2C(=O)C1c1ccc(F)cc1"
  outcome: "inactive"
- compound: "C=CC1=C(C(=O)O)N2C(=O)[C@@H](NC(=O)/C(=N\\O)c3csc(N)n3)[C@H]2SC1 (stereo in doubt)"
  outcome: "inactive"
